- Tested on: human breast cancer (MCF-7 cell lines)
- assay_info: MTT cytotoxicity assay, MCF-7
- Assay type: cell-based
- experimental_context: MCF7, 48 h
readout_label: cytotoxicity at 100 µM (%)

> print(dat)
                                   compound  unit  observed.value
1  CCn1c(COc2ccc3c(-c4ccccc4)cc(=O)oc3c2)nnc1SC1OCC(O)C(O)C1O (stereo not drawn)     %            66.3
2  CCn1c(COc2ccc3c(-c4ccccc4)cc(=O)oc3c2)nnc1SCCOCCO     %            97.6
3        O=c1cc(-c2ccccc2)c2ccc(OCCCI)cc2o1     %            35.6
4  O=c1cc(-c2ccccc2)c2ccc(O)cc2o1 [Compound 15, 7-hydroxy-4-phenyl-2H-chromen-2-one]     %            36.8
5  CC(=O)O[C@@H]1[C@@H](OC(C)=O)[C@H](OCc2cn(CCCOc3ccc4c(-c5ccccc5)cc(=O)oc4c3)nn2)OC[C@H]1OC(C)=O     %            91.9
6  CCn1c(COc2ccc3c(-c4ccccc4)cc(=O)oc3c2)n[nH]c1=S     %              88
7  Cn1c(COc2ccc3c(-c4ccccc4)cc(=O)oc3c2)nnc1S[C@@H]1O[C@H](CO)[C@H](O)[C@H](O)[C@H]1O     %            14.3
8  O=c1cc(-c2ccccc2)c2ccc(OCCCn3cc(CO[C@@H]4OC[C@@H](O)[C@H](O)[C@H]4O)nn3)cc2o1     %            81.9
9  CC(=O)OC[C@H]1O[C@@H](OCc2cn(CCCCOc3ccc4c(-c5ccccc5)cc(=O)oc4c3)nn2)[C@H](OC(C)=O)[C@@H](OC(C)=O)[C@H]1OC(C)=O     %            35.2
